# Test system: OMC3 Cell Line
# assay-comment: SRB cytotoxicity assay, OMC3
# Type: cell-based, human
# measurement-setup: 2 hour drug exposure, read-out: IC50, Test 2 (3 replicate plates)
observed-property: pIC50
Note: pIC50 values are expressed as the negative base-10 logarithm of concentration in M.

Could you tell me which pIC50 is on file for CCc1c2c(nc3ccc(O)cc13)-c1cc3c(c(=O)n1C2)COC(=O)[C@]3(O)CC ? 6.24

---

# Tested on: OMC3 Cell Line
# assay-comment: SRB cytotoxicity assay, OMC3
# Format: cell-based, human
# measurement-setup: Homo sapiens, 2 hour drug exposure, read-out: IC50, Test 2 (3 replicate plates)
I'd be grateful if you could share measured pIC50 for these entries.
Note: pIC50 values are expressed as the negative base-10 logarithm of concentration in M.

Could you tell me which pIC50 is on file for CC[C@@]1(O)C(=O)OCc2c1cc1n(c2=O)Cc2c-1nc1ccccc1c2CC[Si](C)(C)C [Karenitecin] ? 7.38

Could you tell me which pIC50 is on file for CC[C@@]1(O)C(=O)OCc2c1cc1n(c2=O)Cc2cc3c(CN(C)C)c(O)ccc3nc2-1 [Topotecan] ? 5.32
